These data points were gathered from PubChem BioAssay (NCI).

assay: NCI Yeast Anticancer Drug Screen. Data for the sgs1 mgt1 strain (AID 161); conditions: S. cerevisiae sgs1 mgt1 strain, at 5.0 µM (retest, dose inferred, filed as 0.5)
The panel holds about 79,000 compounds, 15% with a hit somewhere; the sample as a whole holds those more often. The source made the active and inactive calls. Cut-off read from the data, not from the text of the source: active = growth inhibition above about 70%; inactive = the rest.
Outcome (select one): active, inactive

-- ask Hello, I am checking results. What call was entered for CCC(=O)N1c2ccccc2CC1c1c[nH]c2ccccc12 (centres undefined) ?
-- reply inactive

-- ask Hello, I am checking results. What call was entered for `COc1cc(/C=C2/SC(=S)NC2=O)cc(OC)c1O` ?
-- reply inactive

-- ask Hello, I am checking results. What call was entered for `Cn1cc(NC(=O)c2cc(NC(=O)CCCCCCCCC(=O)Nc3cc(C(=O)Nc4cc(C(=O)NCCC(N)N)n(C)c4)n(C)c3)cn2C)cc1C(=O)NCCC(=N)N` ?
-- reply active

-- ask Hello, I am checking results. What call was entered for `O=[N+]([O-])c1cc2cccnc2c2ncccc12` ?
-- reply inactive

-- ask Hello, I am checking results. What call was entered for COc1cccc(C2c3cc4c(cc3OC(NNS(=O)(=O)c3ccc(C)cc3)C2C)OCO4)c1O (centres undefined) ?
-- reply inactive

-- ask Hello, I am checking results. What call was entered for CC(C(=O)O)c1c(-c2ccccc2)ccc2ccccc12 (centres undefined) ?
-- reply inactive

-- ask Hello, I am checking results. What call was entered for `CCCN=Cc1cnc(C#N)c(N)n1` ?
-- reply inactive

-- ask Hello, I am checking results. What call was entered for OC(Cc1ccccc1)(c1ccccc1)C(O)(Cc1ccccc1)c1ccccc1 (centres undefined) ?
-- reply inactive

-- ask Hello, I am checking results. What call was entered for `CC(=O)c1csc2c1C(=O)c1scc(C(C)=O)c1C2=O` ?
-- reply inactive

-- ask Hello, I am checking results. What call was entered for CCCCCCCNc1ccc2c(cc1=O)C(NC(C)=O)CCc1cc(OC)c(OC)c(OC)c1-2 (centres undefined) ?
-- reply inactive

-- ask Hello, I am checking results. What call was entered for `CCc1c(Nc2ccccc2C)[nH]c(N)nc1=S` ?
-- reply inactive

-- ask Hello, I am checking results. What call was entered for `COC(=O)c1nc(=S)[nH]c(C(=O)OC)c1C(=O)c1ccccn1` ?
-- reply inactive

-- ask Hello, I am checking results. What call was entered for `OCc1ccc(OCc2ccccc2)c(OCc2ccccc2)c1` ?
-- reply inactive

-- ask Hello, I am checking results. What call was entered for `O=C(Nc1cccc(Br)c1)Oc1ccc(Cl)c2cccnc12` ?
-- reply inactive

-- ask Hello, I am checking results. What call was entered for N#CC(C#N)C(C#N)c1ccc(Cl)c(Cl)c1 (centres undefined) ?
-- reply inactive

-- ask Hello, I am checking results. What call was entered for CC1CC(C)CC(NC2=NCCO2)C1 (centres undefined) ?
-- reply inactive

-- ask Hello, I am checking results. What call was entered for `COc1cnn(-c2ccccc2)c(=O)c1SCc1ccc(Cl)c(Cl)c1` ?
-- reply inactive

-- ask Hello, I am checking results. What call was entered for `O=C1C(c2ccccc2)=S=C2C=CC=CN12` ?
-- reply inactive

-- ask Hello, I am checking results. What call was entered for O=C1NC(c2cccc3ccccc23)Nc2ccc(Cl)cc21 (centres undefined) ?
-- reply inactive

-- ask Hello, I am checking results. What call was entered for `O=C(CCl)Oc1c(Br)cc(-c2ccccc2)cc1Br` ?
-- reply inactive

-- ask Hello, I am checking results. What call was entered for `Cc1c(NC(=O)C(=O)N=NC(=O)c2ccncc2)c(O)c2ccccc2c1O` ?
-- reply inactive

-- ask Hello, I am checking results. What call was entered for `CCN(CC)CCCNc1nccc2c(C)c3[nH]c4ccncc4c3cc12` ?
-- reply inactive

-- ask Hello, I am checking results. What call was entered for COC1CCC(O)C(CO)O1 (centres undefined) ?
-- reply active

-- ask Hello, I am checking results. What call was entered for `CNC(=O)N/N=C/c1ccc([N+](=O)[O-])o1` ?
-- reply inactive

-- ask Hello, I am checking results. What call was entered for CCCCCCN(CCCCCC)CC(O)c1cc(-c2ccccc2)nc2c(O)cccc12 (centres undefined) ?
-- reply inactive

-- ask Hello, I am checking results. What call was entered for Cc1ccc2c(c1)CC1(C2)Cc2ccc(C)cc2C1=O (centres undefined) ?
-- reply inactive

-- ask Hello, I am checking results. What call was entered for `CC(=O)N=C1N(/C=C2\C(=O)Oc3ccccc3C2=O)C(=O)/C(=C/c2ccco2)N1C` ?
-- reply inactive

-- ask Hello, I am checking results. What call was entered for COc1ccc(C2Oc3c(cccc3OC)C=C2[N+](=O)[O-])cc1 (centres undefined) ?
-- reply inactive

-- ask Hello, I am checking results. What call was entered for `O=C1/C(=C/c2ccccc2)CCCc2ccccc21` ?
-- reply inactive

-- ask Hello, I am checking results. What call was entered for `CN(C)c1ccc2c(c1)Cc1cc(NC(=O)/C=C/C(=O)O)ccc1-2` ?
-- reply inactive

-- ask Hello, I am checking results. What call was entered for CNC(Cc1ccccc1)c1ccc(OC)c2ccccc12 (centres undefined) ?
-- reply inactive

-- ask Hello, I am checking results. What call was entered for `O=C(O)/C=C/c1ccc([N+](=O)[O-])o1` ?
-- reply inactive

-- ask Hello, I am checking results. What call was entered for `Cc1cc(C(C)(CC(C)C)c2ccc(O)c(C)c2)ccc1O` ?
-- reply active

-- ask Hello, I am checking results. What call was entered for `N#CSc1cc(SC#N)c2ccccc2c1N` ?
-- reply inactive

-- ask Hello, I am checking results. What call was entered for `O=S(=O)(O)c1cc2ccccc2c(O)c1N=Nc1ccccc1` ?
-- reply inactive

-- ask Hello, I am checking results. What call was entered for `O=C(O)CCSCc1cc(C(=O)Nc2ccc(/C=C/c3ccc(NC(=O)c4cc(CSCCC(=O)O)c5cccnc5c4O)cc3S(=O)(=O)O)c(S(=O)(=O)O)c2)c(O)c2ncccc12` ?
-- reply inactive

-- ask Hello, I am checking results. What call was entered for `CC(=O)c1c(C)n(C)c2c1nnc1ccccc12` ?
-- reply inactive

-- ask Hello, I am checking results. What call was entered for `CC(=O)N(C1=C(Cl)C(=O)c2ccccc2C1=O)c1ccc(Cl)cc1` ?
-- reply active

-- ask Hello, I am checking results. What call was entered for COC(=O)[C@@]12OC[C@]34[C@H]([C@@H](O)[C@@H]1O)[C@@]1(C)[C@H](O)C(=O)C=C(C)[C@@H]1C[C@H]3OC(=O)C(OC(C)=O)[C@@H]24 (some centres undefined) ?
-- reply inactive

-- ask Hello, I am checking results. What call was entered for Cc1ccc(C)c(N2C(=O)C(=O)C(c3nc4ccccc4o3)/C(=N\NC(=O)c3ccccc3O)C2=O)c1 (centres undefined) ?
-- reply inactive

-- ask Hello, I am checking results. What call was entered for `c1ccc(N=C2c3ccsc3C(=Nc3ccccc3)c3ccsc32)cc1` ?
-- reply inactive

-- ask Hello, I am checking results. What call was entered for `COC1=CC(=O)c2c(O)c3c(c(O)c2C1=O)C[C@](C)(O)C[C@@H]3O` ?
-- reply inactive

-- ask Hello, I am checking results. What call was entered for `C#CC(C)(C)Nc1c2ccccc2nc2ccccc12` ?
-- reply inactive

-- ask Hello, I am checking results. What call was entered for `CCOC(=O)c1[nH]n(-c2ccccc2)c(=O)c1/C=N/C(=S)Nc1ccccc1OC` ?
-- reply inactive

* * *

experiment: NCI Yeast Anticancer Drug Screen. Data for the sgs1 mgt1 strain (AID 161); details: S. cerevisiae sgs1 mgt1 strain, at 50.0 µM
Compounds without any hit were thinned out: in the full panel of roughly 79,000, 15% have a hit. Active and inactive are the calls of the source. Rule as the data show it: active = growth inhibition above about 70%; inactive = the rest.
Outcome (select one): active, inactive

-- ask Hello, I am checking results. What call was entered for `CCOC(=O)C[n+]1c(C)cc(-c2ccccc2)cc1C` ?
-- reply inactive

-- ask Hello, I am checking results. What call was entered for `COC(=O)c1cc(OC)c(OC)c(OC)c1` ?
-- reply inactive

-- ask Hello, I am checking results. What call was entered for `Nc1c(/C=C/c2cc3cc(C4=NCCN4)ccc3o2)[nH]c2cc(C3=NCCN3)ccc12` ?
-- reply active

-- ask Hello, I am checking results. What call was entered for `COc1cnn(-c2ccccc2)c(=O)c1SCc1ccc(Cl)c(Cl)c1` ?
-- reply active

-- ask Hello, I am checking results. What call was entered for `CCOC(=O)c1cc2c(nc1N)/C(=C/c1ccccc1)CCCC2` ?
-- reply inactive

-- ask Hello, I am checking results. What call was entered for `COC(=O)c1cc(-c2ccccc2)[nH]c(=O)c1C#N` ?
-- reply active

-- ask Hello, I am checking results. What call was entered for O=C1Oc2ccccc2C1c1ccccc1 (configuration not stated) ?
-- reply inactive

-- ask Hello, I am checking results. What call was entered for C=C1CC(c2ccc(OCCCN3C(=O)c4ccccc4C3=O)c(OC)c2)OC1=O (configuration not stated) ?
-- reply active

-- ask Hello, I am checking results. What call was entered for `CCS(=O)(=O)/C=C/c1ccc2ccccc2n1` ?
-- reply inactive

-- ask Hello, I am checking results. What call was entered for `O=C1CCCc2cc3c(nc21)C(=O)CCC3` ?
-- reply inactive

-- ask Hello, I am checking results. What call was entered for `CC(C)c1ccc(C(=O)OC2CCCCC2)cc1` ?
-- reply inactive

-- ask Hello, I am checking results. What call was entered for COc1ccc(OC)c2c(C(=O)O)c(C(C)c3ccccc3)ccc12 (configuration not stated) ?
-- reply active
